# Experimental protocol: Ratio of drug concentration in brain to plasma in C57BL/6J mouse at 5 mg/kg , sc measured after 30 mins by UPLC based tandem mass spectrometry analysis
# Assay type: ADME, organism-based
# Test context: read-out: BPR
Test readout: Kp at 0.5 h

Req: Request the reported Kp at 0.5 h associated with O=C(O)Cc1ccc(O)cc1Nc1c(Cl)cccc1Cl
Resp: 0.013

* * *

# Tested on: BCRP
# Experimental protocol: Apparent permeability across basolateral to apical side in dog MDCK-II cells expressing BCRP at 3 uM preincubated with BCRP inhibitor, Ko 143 for 15 to 30 mins followed by compound addition and measured after 60 to 90 mins by LC-MS/MS analysis
# Assay type: ADME, cell-based, Canis lupus familiaris
# Test context: with Ko 143 (BCRP inhibitor; concentration not stated), time 60-90 min
Test readout: Papp B→A at 3 µM
State the value, then name its unit.

Req: Fill blank: measured Papp B→A at 3 µM of the molecule O=C(O)Cc1ccc(O)cc1Nc1c(Cl)cccc1Cl is ____.
Resp: 4.03 ×10⁻⁶ cm/s
